Provide the reported pKd of each item.
measurement-target: T1, DR3-8i (human)
T1 construct: also called purified monomeric DR3-8i antigen protein
T1 chain: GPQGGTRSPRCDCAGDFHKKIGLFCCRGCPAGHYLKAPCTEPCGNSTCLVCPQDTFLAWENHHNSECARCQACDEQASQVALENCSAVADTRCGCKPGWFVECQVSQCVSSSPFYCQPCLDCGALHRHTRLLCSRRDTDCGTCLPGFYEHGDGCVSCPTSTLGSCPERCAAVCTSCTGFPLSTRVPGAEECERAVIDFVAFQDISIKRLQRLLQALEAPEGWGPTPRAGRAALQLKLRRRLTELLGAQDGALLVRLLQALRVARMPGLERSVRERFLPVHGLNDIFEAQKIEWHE
protocol-text: BLI, IgG captured on protein A, DR3-8i in solution; single experiment, column not clear
Answers are plain numbers, as −log10 of the molar value.

State recorded pKd for all listed binders.
1. VHg3/VLg4 (antibody, human IgG1, V domains shown, human IgG1) VH: EVQLVQSGGGLVKPGGSLRLSCAASGFKFSSYAMSWVRQAPGKGLEWLSTISDGDSYSYFPDSVKDRFIISRDNAKNSLYLQMNSLRVEDTGVYYCARDRIYGSVQYYAMDYWGQGTLVTVSS VL: DVVMTQSPDSLAVSLGERATISCRASESVEFSGTSLMQWYQQKPRQPLKLLIYAASNVESGVPDRFSGSGSGTDFTLTISSLQAEDVAVYYCQQSRKLPYTFGQGTRLEIK
2. VHg5/VLg2 (antibody, human IgG1, V domains shown, human IgG1) VH: QVQLQQSGGGLVQAGGSLRLSCAASGFTFTSYAMSWVRQAPGKGLEWVATISDGDSYSYFPDSVKDRFIISRDNAKNSLFLQMNSLRAEDTAVYYCARDRIYGSVQYYAMDYWGRGTLVTVSS VL: DIQLTQSPSSLSASVGDRVTITCRASESVEFSGTSLMQWYQQKAGLAPKLLIYAASNVESGVPSRFSGSGSGTDFTLTISSLQPEDFGTYYCQQSRKLPYTFGQGTRLEIK
3. VHg5/VLg11 (antibody, human IgG1, V domains shown, human IgG1) VH: QVQLQQSGGGLVQAGGSLRLSCAASGFTFTSYAMSWVRQAPGKGLEWVATISDGDSYSYFPDSVKDRFIISRDNAKNSLFLQMNSLRAEDTAVYYCARDRIYGSVQYYAMDYWGRGTLVTVSS VL: DIVMTQSPDSLAVSLGERATINCRASESVEFSGTSLMQWYQQKPGQPPKLLIYAASNVESGVPDRFSGSGSGTDFTLTISSLQAEDVAVYYCQQSRKLPYTFGQGTKLEIK
4. VHg1/VLg4 (antibody, human IgG1, V domains shown, human IgG1) VH: QVQLVQSGGGLVQPGGSLRLSCAASGFTFSSYAMSWVRQAPGKGLEWVSTISDGDSYSYFPDSVKDRFTISRDNSKNTLYLQMNSLRAEDTSVYYCARDRIYGSVQYYAMDYWGQGTLVTVSS VL: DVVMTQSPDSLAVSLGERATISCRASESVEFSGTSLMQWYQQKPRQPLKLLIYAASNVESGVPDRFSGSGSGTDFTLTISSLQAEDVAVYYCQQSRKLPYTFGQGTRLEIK

Reply text:
9.41
9.88
10.06
9.71
